# assaySystem: MC1R (Homo sapiens, UniProt Q01726)
# Construct: host or cells: CHO-K1 (ECL assay)
# Sequence (Q01726 whole entry): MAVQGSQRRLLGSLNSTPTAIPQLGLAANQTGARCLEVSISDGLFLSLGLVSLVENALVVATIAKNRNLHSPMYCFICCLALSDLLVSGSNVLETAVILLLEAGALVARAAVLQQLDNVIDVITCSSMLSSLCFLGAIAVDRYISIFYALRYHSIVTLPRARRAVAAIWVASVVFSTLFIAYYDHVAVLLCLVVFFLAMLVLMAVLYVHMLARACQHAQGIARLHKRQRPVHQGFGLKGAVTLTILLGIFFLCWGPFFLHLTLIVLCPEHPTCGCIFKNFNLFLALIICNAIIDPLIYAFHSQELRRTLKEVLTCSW
# protocolNotes: cAMP assay (EC50), MC1R
# Format: cell-based
# details: EC50(MC1R)/EC50(MC4R)
Bridge positions count the residues as written; N and C are the ends. Square brackets hold non-standard residues; d marks the D form. Peptide text beside a SMILES is read from it. Pen = CC(C)(S)[C@H](N)C(=O)O; hCys = N[C@@H](CCS)C(=O)O
hey, just use yes if measured Ratios of EC50 values MC1/4 is less than 20, otherwise no

See these solved cases before continuing.
{"compound": "CC[C@@H](C)[C@H]1NC(=O)[C@@H](NC(=O)[C@H](CCCNC(=N)N)NC(C)=O)CSSC[C@@H](C(N)=O)NC(=O)[C@H](Cc2c[nH]c3ccccc23)NC(=O)[C@H](CCCNC(=N)N)NC(=O)[C@@H](Cc2ccccc2)NC(=O)[C@H](Cc2c[nH]cn2)NC1=O", "classLabel": "yes"}
{"compound": "CC(=O)N[C@@H](CCCNC(=N)N)C(=O)N[C@H]1CSSC[C@@H](C(N)=O)NC(=O)[C@H](Cc2c[nH]c3ccccc23)NC(=O)[C@H](CCCNC(=N)N)NC(=O)[C@@H](Cc2ccccc2)NC(=O)[C@H](CCC(N)=O)NC(=O)[C@@H](C)NC1=O [Compound 8] (Ac-RC[dA]Q[dF]RWC-NH2; disulfide 2-8)", "classLabel": "no"}

Hello, is Ratios of EC50 values MC1/4 of the following compound strictly smaller than 20? CC(=O)N[C@@H](CCCNC(=N)N)C(=O)N[C@H]1CCSSC[C@@H](C(N)=O)NC(=O)[C@H](Cc2c[nH]c3ccccc23)NC(=O)[C@H](CCCNC(=N)N)NC(=O)[C@@H](Cc2ccccc2)NC(=O)[C@H](C)NC1=O [Compound 15] (Ac-R[hCys]A[dF]RWC-NH2; disulfide 2-7)
yes

Lab note: confirm whether the reported Ratios of EC50 values MC1/4 for this compound is below 20, equality not counting. compound: CC(=O)N[C@@H](CCCNC(=N)N)C(=O)N[C@H]1CSSC[C@@H](C(N)=O)NC(=O)[C@H](Cc2c[nH]c3ccccc23)NC(=O)[C@H](CCCNC(=N)N)NC(=O)[C@@H](Cc2ccccc2)NC(=O)[C@H](Cc2c[nH]cn2)NC(=O)[C@@H](C(C)(C)C)NC1=O
yes

Lab note: confirm whether the reported Ratios of EC50 values MC1/4 for this compound is below 20, equality not counting. compound: CC(=O)N[C@@H](CCCNC(=N)N)C(=O)N[C@H]1CSSC[C@@H](C(N)=O)NC(=O)[C@H](Cc2c[nH]c3ccccc23)NC(=O)[C@H](CCCNC(=N)N)NC(=O)[C@@H](Cc2ccccc2)NC(=O)[C@H](Cc2c[nH]cn2)NC(=O)[C@@H](C(C)C)NC1=O
yes

Is the reported Ratios of EC50 values MC1/4 for CC(=O)N[C@@H](CCCNC(=N)N)C(=O)N[C@H]1CSSC[C@@H](C(N)=O)NC(=O)[C@H](Cc2c[nH]c3ccccc23)NC(=O)[C@H](CCCNC(=N)N)NC(=O)[C@@H](Cc2ccccc2)NC(=O)[C@H](CC(N)=O)NC(=O)[C@@H](C)NC1=O [Compound 9] (Ac-RC[dA]N[dF]RWC-NH2; disulfide 2-8) strictly below 20?
no

Ratios of EC50 values MC1/4 under 20? Item: CC(=O)N[C@@H](CCCNC(=N)N)C(=O)N[C@H]1CCSSC[C@@H](C(N)=O)NC(=O)[C@H](Cc2c[nH]c3ccccc23)NC(=O)[C@H](CCCNC(=N)N)NC(=O)[C@@H](Cc2ccccc2)NC(=O)[C@@H](C)NC1=O [Compound 16] (Ac-R[hCys][dA][dF]RWC-NH2; disulfide 2-7)
no

Please check: Ratios of EC50 values MC1/4 for CC(=O)N[C@@H](CCCNC(=N)N)C(=O)N[C@H]1CSSC[C@@H](C(N)=O)NC(=O)[C@H](Cc2c[nH]c3ccccc23)NC(=O)[C@H](CCCNC(=N)N)NC(=O)[C@@H](Cc2ccccc2)NC(=O)[C@@H]2CCCN2C(=O)[C@@H](C)NC1=O [Compound 13] (Ac-RC[dA]P[dF]RWC-NH2; disulfide 2-8) , strictly under 20 or not?
yes

Please indicate whether the reported Ratios of EC50 values MC1/4 of CC(=O)N[C@@H](CCCNC(=N)N)C(=O)N[C@H]1CSSC[C@@H](C(N)=O)NC(=O)[C@H](Cc2c[nH]c3ccccc23)NC(=O)[C@H](CCCNC(=N)N)NC(=O)[C@@H](Cc2ccccc2)NC(=O)[C@H](Cc2c[nH]c3ccccc23)NC(=O)[C@@H](C)NC1=O [Compound 7] (Ac-RC[dA]W[dF]RWC-NH2; disulfide 2-8) is strictly below 20.
yes

Lab note: confirm whether the reported Ratios of EC50 values MC1/4 for this compound is below 20, equality not counting. compound: CC(=O)N[C@@H](CCCNC(=N)N)C(=O)N[C@H]1CSSC[C@@H](C(N)=O)NC(=O)[C@H](Cc2c[nH]c3ccccc23)NC(=O)[C@H](CCCNC(=N)N)NC(=O)[C@@H](Cc2ccccc2)NC(=O)[C@H](CCCNC(=N)N)NC(=O)[C@@H](C)NC1=O [Compound 10] (Ac-RC[dA]R[dF]RWC-NH2; disulfide 2-8)
yes

Is 20 strictly greater than the compound's reported Ratios of EC50 values MC1/4? compound: CC(=O)N[C@@H](CCCNC(=N)N)C(=O)N[C@H]1CSSC[C@@H](C(N)=O)NC(=O)[C@H](Cc2c[nH]c3ccccc23)NC(=O)[C@H](CCCNC(=N)N)NC(=O)[C@@H](Cc2ccccc2)NC(=O)[C@H](Cc2ccc(O)cc2)NC(=O)[C@@H](C)NC1=O [Compound 11] (Ac-RC[dA]Y[dF]RWC-NH2; disulfide 2-8)
yes

I'd appreciate it if you could check whether CC(=O)N[C@@H](CCCNC(=N)N)C(=O)N[C@H]1CCSSC(C)(C)[C@@H](C(N)=O)NC(=O)[C@H](Cc2c[nH]c3ccccc23)NC(=O)[C@H](CCCNC(=N)N)NC(=O)[C@@H](Cc2ccccc2)NC(=O)[C@@H](C)NC1=O [Compound 17] (Ac-R[hCys][dA][dF]RW[Pen]-NH2; disulfide 2-7) has Ratios of EC50 values MC1/4 smaller than 20.
yes

====

# assaySystem: MC3R (Homo sapiens, UniProt P41968)
# Construct: host or cells: CHO-K1 (ECL assay)
# Sequence (P41968 whole entry): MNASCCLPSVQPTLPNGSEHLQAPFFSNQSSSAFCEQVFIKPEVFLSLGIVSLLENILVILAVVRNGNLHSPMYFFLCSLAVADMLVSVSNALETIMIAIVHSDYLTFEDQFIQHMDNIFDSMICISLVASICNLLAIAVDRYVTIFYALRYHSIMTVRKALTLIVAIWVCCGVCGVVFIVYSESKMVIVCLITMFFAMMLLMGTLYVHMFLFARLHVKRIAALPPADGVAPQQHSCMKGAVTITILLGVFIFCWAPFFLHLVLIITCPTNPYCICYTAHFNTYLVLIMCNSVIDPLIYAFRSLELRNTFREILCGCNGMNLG
# protocolNotes: cAMP assay (EC50), MC3R
# Type: cell-based
# details: EC50(MC3R)/EC50(MC4R)
Bridge positions count the residues as written; N and C are the ends. Square brackets hold non-standard residues; d marks the D form. Peptide text beside a SMILES is read from it. dPhe(4-F) = N[C@H](Cc1ccc(F)cc1)C(=O)O; Pen = CC(C)(S)[C@H](N)C(=O)O; hCys = N[C@@H](CCS)C(=O)O
Please provide measured Ratios of EC50 values MC3/4 for the entries that follow.

{"compound": "CC(=O)N[C@@H](CCCNC(=N)N)C(=O)N[C@H]1CSSC[C@@H](C(N)=O)NC(=O)[C@H](Cc2c[nH]c3ccccc23)NC(=O)[C@H](CCCNC(=N)N)NC(=O)[C@@H](Cc2ccccc2)NC(=O)[C@H](CCC(N)=O)NC(=O)[C@@H](C)NC1=O [Compound 8] (Ac-RC[dA]Q[dF]RWC-NH2; disulfide 2-8)", "Ratios of EC50 values MC3/4": 5}
{"compound": "CC(=O)N[C@@H](CCCNC(=N)N)C(=O)N[C@H]1CSSC[C@@H](C(N)=O)NC(=O)[C@H](Cc2c[nH]c3ccccc23)NC(=O)[C@H](CCCNC(=N)N)NC(=O)[C@@H](Cc2ccccc2)NC(=O)[C@H](CCCNC(=N)N)NC(=O)[C@@H](C)NC1=O [Compound 10] (Ac-RC[dA]R[dF]RWC-NH2; disulfide 2-8)", "Ratios of EC50 values MC3/4": 1.45}
{"compound": "CC(=O)N[C@@H](CCCNC(=N)N)C(=O)N[C@H]1CSSC[C@@H](C(N)=O)NC(=O)[C@H](Cc2c[nH]c3ccccc23)NC(=O)[C@H](CCCNC(=N)N)NC(=O)[C@@H](Cc2ccccc2)NC(=O)[C@H](CC(N)=O)NC(=O)[C@@H](C)NC1=O [Compound 9] (Ac-RC[dA]N[dF]RWC-NH2; disulfide 2-8)", "Ratios of EC50 values MC3/4": 30}
{"compound": "CC(=O)N[C@@H](CCC(=O)O)C(=O)N[C@H]1CSSC[C@@H](C(N)=O)NC(=O)[C@H](Cc2c[nH]c3ccccc23)NC(=O)[C@H](CCCNC(=N)N)NC(=O)[C@@H](Cc2ccccc2)NC(=O)[C@H](Cc2c[nH]cn2)NC(=O)[C@H](C)NC1=O [Compound 22] (Ac-ECAH[dF]RWC-NH2; disulfide 2-8)", "Ratios of EC50 values MC3/4": ">20"}
{"compound": "CC(=O)N[C@@H](CCCNC(=N)N)C(=O)N[C@H]1CCSSC(C)(C)[C@@H](C(N)=O)NC(=O)[C@H](Cc2c[nH]c3ccccc23)NC(=O)[C@H](CCCNC(=N)N)NC(=O)[C@@H](Cc2ccccc2)NC(=O)[C@@H](C)NC1=O [Compound 17] (Ac-R[hCys][dA][dF]RW[Pen]-NH2; disulfide 2-7)", "Ratios of EC50 values MC3/4": 17}
{"compound": "CC(=O)N[C@@H](CCCNC(=N)N)C(=O)N[C@H]1CSSC[C@@H](C(N)=O)NC(=O)[C@H](Cc2c[nH]c3ccccc23)NC(=O)[C@H](CCCNC(=N)N)NC(=O)[C@@H](Cc2ccccc2)NC(=O)[C@H](Cc2cncn2C)NC(=O)[C@@H](C)NC1=O", "Ratios of EC50 values MC3/4": 350}
{"compound": "CC[C@@H](C)[C@H]1NC(=O)[C@@H](NC(=O)[C@H](CCCNC(=N)N)NC(C)=O)CSSC[C@@H](C(N)=O)NC(=O)[C@H](Cc2c[nH]c3ccccc23)NC(=O)[C@H](CCCNC(=N)N)NC(=O)[C@@H](Cc2ccccc2)NC(=O)[C@H](Cc2c[nH]cn2)NC1=O", "Ratios of EC50 values MC3/4": 0.96}
{"compound": "CC(=O)N[C@@H](CCCNC(=N)N)C(=O)N[C@H]1CSSC[C@@H](C(N)=O)NC(=O)[C@H](Cc2c[nH]c3ccccc23)NC(=O)[C@H](CCCNC(=N)N)NC(=O)[C@@H](Cc2ccccc2)NC(=O)[C@H](Cc2c[nH]cn2)NC(=O)[C@@H](CC(C)C)NC1=O", "Ratios of EC50 values MC3/4": 1.13}
{"compound": "CC(=O)N[C@@H](CCCNC(=N)N)C(=O)N[C@H]1CSSC[C@@H](C(N)=O)NC(=O)[C@H](Cc2c[nH]c3ccccc23)NC(=O)[C@H](CCCNC(=N)N)NC(=O)[C@@H](Cc2ccccc2)NC(=O)[C@H](Cc2c[nH]c3ccccc23)NC(=O)[C@@H](C)NC1=O [Compound 7] (Ac-RC[dA]W[dF]RWC-NH2; disulfide 2-8)", "Ratios of EC50 values MC3/4": ">290"}
{"compound": "CC(=O)N[C@@H](CCCNC(=N)N)C(=O)N[C@H]1CSSC[C@@H](C(N)=O)NC(=O)[C@H](Cc2c[nH]c3ccccc23)NC(=O)[C@H](CCCNC(=N)N)NC(=O)[C@@H](Cc2ccccc2)NC(=O)[C@H](Cc2c[nH]cn2)NC(=O)[C@@H](C(C)C)NC1=O", "Ratios of EC50 values MC3/4": 1.19}

Batch request: Ratios of EC50 values MC3/4 per item, same order as input.
1. CC(=O)N[C@@H](CCCNC(=N)N)C(=O)N[C@H]1CSSC[C@@H](C(N)=O)NC(=O)[C@H](Cc2c[nH]c3ccccc23)NC(=O)[C@H](CCCNC(=N)N)NC(=O)[C@@H](Cc2ccccc2)NC(=O)[C@@H]2CCCN2C(=O)[C@@H](C)NC1=O [Compound 13] (Ac-RC[dA]P[dF]RWC-NH2; disulfide 2-8)
2. CC(=O)N[C@@H](CCCNC(=N)N)C(=O)N[C@H]1CSSC[C@@H](C(N)=O)NC(=O)[C@H](Cc2c[nH]c3ccccc23)NC(=O)[C@H](CCCNC(=N)N)NC(=O)[C@@H](Cc2ccc(F)cc2)NC(=O)[C@@H]2CCCN2C(=O)[C@@H](C)NC1=O [Compound 14] (Ac-RC[dA]P[dPhe(4-F)]RWC-NH2; disulfide 2-8)
3. CC(=O)N[C@@H](CCCNC(=N)N)C(=O)N[C@H]1CSSC[C@@H](C(N)=O)NC(=O)[C@H](Cc2c[nH]c3ccccc23)NC(=O)[C@H](CCCNC(=N)N)NC(=O)[C@@H](Cc2ccccc2)NC(=O)[C@H](Cc2ccc(O)cc2)NC(=O)[C@@H](C)NC1=O [Compound 11] (Ac-RC[dA]Y[dF]RWC-NH2; disulfide 2-8)

1: >200; 2: >400; 3: >22.2
